Target: Epac2(B) (Homo sapiens)
Construct: Human Epac2(B) (amino acids 283-1011) lacks the first 283 amino acids of Epac2; made in house; host or cells: Escherichia coli Rosetta 2(DE3)
Sequence (Q8WZA2 283-1011): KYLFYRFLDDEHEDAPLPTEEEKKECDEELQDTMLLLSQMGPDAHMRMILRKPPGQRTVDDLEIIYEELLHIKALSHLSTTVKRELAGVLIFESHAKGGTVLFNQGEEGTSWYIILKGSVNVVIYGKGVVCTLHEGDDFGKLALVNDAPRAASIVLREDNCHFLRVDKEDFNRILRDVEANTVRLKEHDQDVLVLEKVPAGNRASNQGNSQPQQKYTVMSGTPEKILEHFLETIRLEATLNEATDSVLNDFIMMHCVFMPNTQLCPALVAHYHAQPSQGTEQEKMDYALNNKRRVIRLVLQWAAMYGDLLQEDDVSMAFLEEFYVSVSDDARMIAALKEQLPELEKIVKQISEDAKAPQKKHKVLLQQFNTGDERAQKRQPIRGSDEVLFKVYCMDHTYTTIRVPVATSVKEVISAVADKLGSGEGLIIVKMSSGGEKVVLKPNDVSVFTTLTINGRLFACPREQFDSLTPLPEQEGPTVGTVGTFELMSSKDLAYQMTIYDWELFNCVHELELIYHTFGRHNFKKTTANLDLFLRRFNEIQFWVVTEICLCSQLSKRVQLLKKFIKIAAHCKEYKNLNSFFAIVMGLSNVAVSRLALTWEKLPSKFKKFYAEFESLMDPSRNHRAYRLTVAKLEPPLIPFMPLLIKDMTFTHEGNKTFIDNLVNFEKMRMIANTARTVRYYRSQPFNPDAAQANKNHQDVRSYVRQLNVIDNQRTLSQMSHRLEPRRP
Assay: In vitro GEF activity (initial velocity of GDP exchange on Rap1A) of Epac2(B)
Assay type: biochemical
Conditions: compound 30 μM; 300 μM cAMP; FIG. 6C
Readout kind: Antagonism of cAMP-activated Epac2(B) GEF activity

Compound | Tgt | Result
O=CN1CCCc2c1cc(Br)c(F)c2Br [Compound f)] | Epac2(B) (Homo sapiens) | antagonistic properties
CC1CCc2c(ccc(F)c2Br)N1C=O (stereo not drawn) [a)] | Epac2(B) (Homo sapiens) | antagonistic properties
CC1CCc2c(Br)cc(Br)cc2N1C=O (stereo not drawn) [e)] | Epac2(B) (Homo sapiens) | antagonistic properties

###

Target: Epac1 (Homo sapiens, UniProt O95398)
Construct: Recombinant human Epac1 (residues 149-881), deleted of its Dishevelled, Egl-10, and Pleckstrin (DEP) domain; made in house
Sequence (O95398 149-881 isoform O95398-3): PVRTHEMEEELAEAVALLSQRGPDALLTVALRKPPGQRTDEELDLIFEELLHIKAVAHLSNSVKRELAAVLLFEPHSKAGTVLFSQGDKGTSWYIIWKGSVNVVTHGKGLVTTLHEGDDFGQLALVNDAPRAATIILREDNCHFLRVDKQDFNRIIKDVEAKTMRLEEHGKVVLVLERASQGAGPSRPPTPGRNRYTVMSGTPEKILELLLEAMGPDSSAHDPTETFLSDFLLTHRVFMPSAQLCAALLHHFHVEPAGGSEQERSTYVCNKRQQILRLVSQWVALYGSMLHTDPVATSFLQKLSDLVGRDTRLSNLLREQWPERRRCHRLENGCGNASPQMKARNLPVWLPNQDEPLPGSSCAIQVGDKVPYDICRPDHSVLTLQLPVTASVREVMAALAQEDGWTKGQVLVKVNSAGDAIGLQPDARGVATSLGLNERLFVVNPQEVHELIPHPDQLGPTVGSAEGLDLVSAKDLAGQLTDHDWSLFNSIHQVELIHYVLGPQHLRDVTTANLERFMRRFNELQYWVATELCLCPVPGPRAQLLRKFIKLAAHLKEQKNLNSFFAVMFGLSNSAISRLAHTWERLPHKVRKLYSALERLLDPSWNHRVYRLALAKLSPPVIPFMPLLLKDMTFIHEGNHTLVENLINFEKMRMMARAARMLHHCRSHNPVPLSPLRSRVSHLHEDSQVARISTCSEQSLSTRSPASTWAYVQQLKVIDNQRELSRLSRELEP
Assay: In vitro GEF activity (initial velocity of GDP exchange on Rap1A) of Epac1
Type: biochemical
Conditions: Epac1 activated by 300 μM cAMP
Known IC50 of a selection of compounds
Readout kind: IC50 (µM)

Compound | Tgt | Numeric readout
CC1CCc2c(cc(Br)c(F)c2Br)N1C=O (racemic) [CE3F4] | Epac1 (Homo sapiens, UniProt O95398) | 11
C[C@@H]1CCc2c(cc(Br)c(F)c2Br)N1C=O [(R)-CE3F4] | Epac1 (Homo sapiens, UniProt O95398) | 4.2

###

Target: Epac1 (Homo sapiens)
Construct: Recombinant human Epac1 (residues 149-881), deleted of its Dishevelled, Egl-10, and Pleckstrin (DEP) domain
Assay: In vitro GEF activity (initial velocity of GDP exchange on Rap1A) of Epac1
Settings: Epac1 GEF activity toward Rap1, Epac1 activated by 20 μM 007; mean of n=4 to 9 independent determinations
pEC50: −log10 of the molar value.
Readout kind: pEC50

Molecule | Numeric readout
CC1CCc2c(cc(Br)c(F)c2Br)N1C=O (racemic) | 4.97
O=CN1CCCc2c1cc(Br)c(F)c2Br | 4.30
C[C@@H]1CCc2c(cc(Br)c(F)c2Br)N1C=O [(R)-CE3F4] | 5.24
